- Test system: LNCaP parental and LNCaP-AbiRes cells
- Experimental Details: Cytotoxicity and proliferation assay (Cyquant direct assay), LNCaP parental and AbiRes
- Type: cell-based, human
- Condition Details: LNCaP; single treatment preliminary experiments; concentration used in combination with Abi (FIG. 6B); except PD-0325901; read-out: Concentrations corresponding to IC50 of each drug
Endpoint: pIC50
Would you please state pIC50, meaning minus log10 of the concentration in mol/L, as a bare number?

Given CC(C)CC(=O)Nc1n[nH]c2c1CN(C(=O)C1CCN(C)CC1)C2(C)C , state its recorded pIC50.
7.00

Ref: patent US20240307414A1
